Experiment: Plasma concentration after oral L- or D-CH-1504 in non-fasted female Lewis rats
Type: in vivo
Conditions: female, Lewis, rat, plasma, oral, 10 mg/kg, 6 h after 10 mg/kg oral, non-fasted female Lewis rats, individual animals; read-out: Plasma conc. of D-CH-1504
measured.attribute: concentration at 6 h
Express the reported value numerically, then name its unit.

Prompt: Need concentration at 6 h of `C=C(C[C@@H](NC(=O)c1ccc(CCc2ccc3nc(N)nc(N)c3c2)cc1)C(=O)O)C(=O)O` , thanks.
Response: 8.34 ng/mL

----------
Experiment: Plasma concentration after oral L- or D-CH-1504 in non-fasted female Lewis rats
Assay type: in vivo
Details: female, Lewis, rat, plasma, oral, 10 mg/kg, 3 h after 10 mg/kg oral, non-fasted female Lewis rats, individual animals; read-out: Plasma conc. of D-CH-1504
measured.attribute: concentration at 3 h (ng/mL)
One number for each entry, in ng/mL.

Prompt: Need concentration at 3 h of `C=C(C[C@@H](NC(=O)c1ccc(CCc2ccc3nc(N)nc(N)c3c2)cc1)C(=O)O)C(=O)O` , thanks.
Response: 14.3
